- Test Summary: Pharmacoscintigraphic evaluation of regional drug absorption: plasma pharmacokinetics after site-specific gastrointestinal delivery (Enterion capsule)
- Assay type: in vivo, human
- Condition: both sexes, human, plasma, oral, 400 mg, healthy volunteers, dosing region duodenum, read-out: Mean (SD) AUC
Assay Endpoint: AUC (ng·h/mL)
Kindly answer with a numeric value in ng·h/mL, unit omitted.

Q: Given CS(=O)(=O)O.Cc1oc(-c2ccccc2)nc1CCNCC(=O)N1CCC[C@H]1C#N , state its recorded AUC.
Ans: 14200

###

- Test Summary: Pharmacoscintigraphic evaluation of regional drug absorption: plasma pharmacokinetics after site-specific gastrointestinal delivery (Enterion capsule)
- Format: in vivo, human
- Condition: both sexes, human, plasma, oral, 400 mg, healthy volunteers, dosing region duodenum, read-out: Mean (SD) Cmax
Assay Endpoint: Cmax (ng/mL)
Give the number; ng/mL is assumed, so skip it.

Q: Reported Cmax, molecule CS(=O)(=O)O.Cc1oc(-c2ccccc2)nc1CCNCC(=O)N1CCC[C@H]1C#N : ____
Ans: 7580
